z-score by entry:
# Procedure summary: JC-1 mitochondrial signal, unstimulated myeloma cells – cell-based, JC-1 fluorescence, RPMI8226, 24 h, 100 nL compound, profiling panel (AID 1169); also: test concentration not given here
# Setup conditions: JC-1 mitochondrial potential fluorescence, higher = more signal

Known z-score results, listed for orientation:
Q: Find the recorded z-score belonging to COC(=O)C1(CC(C)C)C=C2C(=C(c3ccccc3)C(=O)C2C)CN1 (configuration not stated) and report it.
Ans: -0.604

Q: Return reported z-score; argument: `O=C1N(Cc2ccccc2)c2ccccc2C[C@]12N=C(c1ccc(OCCCO)cc1)O[C@@H]2c1ccccc1`
Ans: -1.22

Q: Would you kindly share the measured z-score for `C=CCN1Cc2ccccc2[C@@H]2OC(c3ccc(OCCCO)cc3)=N[C@]2(CC=C)C1=O` ?
Ans: -1.09

Next:
Q: Quick one: z-score for `COc1ccc(C#Cc2ccc3c(c2)[C@]2(C(=O)N3)[C@H](c3ccc(O)cc3)N3[C@H](c4ccccc4)[C@H](c4ccccc4)OC(=O)[C@H]3[C@@H]2C(=O)Nc2nc3ccccc3s2)cc1` ?
Ans: -0.429

Q: Return reported z-score; argument: `NC(=O)NCC#Cc1ccc2c(c1)[C@]1(C(=O)N2)[C@H](C(=O)N2CCN(c3ncccn3)CC2)[C@H]2C(=O)O[C@H](c3ccccc3)[C@H](c3ccccc3)N2[C@@H]1c1ccc(O)cc1`
Ans: -0.315

Q: Consider the compound `O=C(NCCN1CCOCC1)[C@@H]1c2ccccc2C(=O)N(Cc2ccccc2Cl)[C@H]1c1ccc(CO)cc1` and give its measured z-score.
Ans: -0.695

Q: Returns the measured z-score for the input compound. Input: `C=CC[C@]1(C(=O)N2CCCCC2)N=C(c2ccc(OCCCO)cc2)O[C@H]1c1ccccc1CN=[N+]=[N-]`
Ans: -1.31

Q: Need z-score, item `C=CCNC(=O)[C@@H]1[C@H]2C(=O)O[C@H](c3ccccc3)[C@H](c3ccccc3)N2[C@H](c2ccccc2OCCO)[C@@]12C(=O)N(C(=O)OCCOC)c1ccc(C#CC3(O)CCCCCC3)cc12`
Ans: -0.816

Q: z-score for `CCOC(=O)C[C@H]1[C@H](OC(=O)c2ccc(C(=O)c3ccccc3)cc2)[C@@H](NC(=O)C2CCCCC2)c2cc(OCCCO)ccc2N1C(=O)c1ccc2ccccc2n1` ?
Ans: 0.592

Q: Could you tell me which z-score is on file for `C=C(COC)/C(=C/C[C@H](OC(=O)c1ccncc1)c1ccccc1OCCO)c1cc(C(=O)OC)ccc1OC` ?
Ans: -0.596
